Biological target: Calpain-2 catalytic subunit (Homo sapiens, UniProt P17655)
Test: Compound was evaluated for the inhibition of Cysteine protease Calpain 2
Reported Ki is given for each of the following compounds.
Form entry: value (nM) — number only.

Example results:
CCC(NC(=O)C(CC(C)C)NC(=O)C(c1ccccc1)c1ccccc1)C(=O)C(=O)NCc1ccccn1 (configuration not stated)    90
CCC(NC(=O)C(CC(C)C)NC(=O)OCc1ccccc1)C(=O)C(=O)NCC(O)c1ccc(OCc2ccccc2)c(OCc2ccccc2)c1 (configuration not stated)    100
CC(C)CC(NC(=O)OCc1ccccc1)C(=O)NC(Cc1ccccc1)C(=O)C(=O)NCCNC(=O)CCCC[C@@H]1SC[C@@H]2NC(=O)N[C@@H]21 (some centres not stated)    160
CCNC(=O)C(=O)C(CC)NC(=O)C(CC(C)C)NC(=O)c1cccnc1 (configuration not stated)    830

Next compound, please.
Query: Need Ki, item CCC(NC(=O)C(CC(C)C)NC(=O)OCc1ccccc1)C(=O)C(=O)NCc1ccccn1 (configuration not stated)
Reply: 17

* * *

Target: Calpain-2 catalytic subunit (Homo sapiens, UniProt P17655)
Test: Compound was evaluated for the inhibition of Cysteine protease Calpain 2
Reported Ki is given for each of the following molecules.
Form entry: value (nM) — number only.

CCC(NC(=O)C(CC(C)C)NC(=O)OCc1ccccc1)C(=O)C(=O)NCC(OC)OC (centres undefined)    100
CCC(NC(=O)C(CC(C)C)NC(=O)OCc1ccccc1)C(=O)C(=O)NCCc1ccc(O)cc1 (centres undefined)    60
CCC(NC(=O)C(CC(C)C)NC(=O)OCc1ccccc1)C(=O)C(=O)NC (centres undefined)    83
CC(C)CC(NC(=O)OCc1ccccc1)C(=O)NC(Cc1ccccc1)C(=O)C(=O)NCC(O)c1cccc(Oc2ccc(Cl)c(Cl)c2)c1 (centres undefined)    120

Query: Need Ki, item CCC(NC(=O)C(CC(C)C)NC(=O)OCc1ccccc1)C(=O)C(=O)NCc1ccccc1 (centres undefined)
Reply: 350

Query: Another molecule to check: CCC(NC(=O)C(CC(C)C)NC(=O)OCc1ccccc1)C(=O)C(=O)NCCc1cccc(OC)c1 (centres undefined)
Reply: 86

Query: Another molecule to check: CCC(NC(=O)C(CC(C)C)NC(=O)OCc1ccccc1)C(=O)C(=O)NCCCCCO (centres undefined)
Reply: 51

Query: Another molecule to check: CCOC(CNC(=O)C(=O)C(CC)NC(=O)C(CC(C)C)NC(=O)OCc1ccccc1)OCC (centres undefined)
Reply: 160

Query: Another molecule to check: CCC(NC(=O)C(CC(C)C)NC(=O)OCc1ccccc1)C(=O)C(=O)NCC(O)c1cccc(Oc2cccc(C(F)(F)F)c2)c1 (centres undefined)
Reply: 280

Query: Another molecule to check: CCC(NC(=O)C(CC(C)C)NC(=O)OCc1ccccc1)C(=O)C(=O)NCc1nc2c(c(=O)n(C)c(=O)n2C)n1C (centres undefined)
Reply: 4600

Query: Another molecule to check: CCC(NC(=O)C(CC(C)C)NC(=O)OCc1ccccc1)C(=O)C(=O)NCc1cc(OC)cc(OC)c1 (centres undefined)
Reply: 22

Query: Another molecule to check: CCNC(=O)C(=O)C(CC)NC(=O)C(CC(C)C)NC(=O)c1nccc2ccccc12 (centres undefined)
Reply: 110

Query: Another molecule to check: CCC(NC(=O)C(CC(C)C)NC(=O)OCc1ccccc1)C(=O)C(=O)NCCc1c[nH]c2ccccc12 (centres undefined)
Reply: 50

* * *

Target: Calpain-2 catalytic subunit (Homo sapiens)
Experiment: Compound was evaluated for the inhibition of Cysteine protease Calpain 2
measurement kind: pKi
A value of pKi is the negative decimal logarithm of a concentration given in moles per litre.

Example results:
CCC(NC(=O)C(CC(C)C)NC(=O)OCc1ccccc1)C(=O)C(=O)NCC(O)c1ccccc1 (configuration not stated)    7.82
CCNC(=O)C(=O)C(CC)NC(=O)C(CC(C)C)NC(=O)c1ccc2ccccc2n1 (configuration not stated)    6.52
CNC(=O)C(=O)C(Cc1ccccc1)NC(=O)C(CC(C)C)NC(=O)OCc1ccccc1 (configuration not stated)    6.82

Query: Need pKi, item CCNC(=O)C(=O)C(CC)NC(=O)C(CC(C)C)NC(=O)c1cnccn1 (configuration not stated)
Reply: 6.32

Query: Another compound to check: CC(C)CC(NC(=O)OCc1ccccc1)C(=O)NC(Cc1ccccc1)C(=O)C(=O)NCC(O)c1ccc(OCc2ccccc2)c(OCc2ccccc2)c1 (configuration not stated)
Reply: 6.17

Query: Another compound to check: CCC(NC(=O)C(CC(C)C)NC(=O)OCc1ccccc1)C(=O)C(=O)NCCO (configuration not stated)
Reply: 7.11

Query: Another compound to check: CCCC(NC(=O)C(CC(C)C)NC(=O)OCc1ccccc1)C(=O)C(=O)NCC(O)c1ccccc1 (configuration not stated)
Reply: 4.96

* * *

Molecular target: Calpain-2 catalytic subunit (Homo sapiens, UniProt P17655)
Sequence (P17655 whole entry): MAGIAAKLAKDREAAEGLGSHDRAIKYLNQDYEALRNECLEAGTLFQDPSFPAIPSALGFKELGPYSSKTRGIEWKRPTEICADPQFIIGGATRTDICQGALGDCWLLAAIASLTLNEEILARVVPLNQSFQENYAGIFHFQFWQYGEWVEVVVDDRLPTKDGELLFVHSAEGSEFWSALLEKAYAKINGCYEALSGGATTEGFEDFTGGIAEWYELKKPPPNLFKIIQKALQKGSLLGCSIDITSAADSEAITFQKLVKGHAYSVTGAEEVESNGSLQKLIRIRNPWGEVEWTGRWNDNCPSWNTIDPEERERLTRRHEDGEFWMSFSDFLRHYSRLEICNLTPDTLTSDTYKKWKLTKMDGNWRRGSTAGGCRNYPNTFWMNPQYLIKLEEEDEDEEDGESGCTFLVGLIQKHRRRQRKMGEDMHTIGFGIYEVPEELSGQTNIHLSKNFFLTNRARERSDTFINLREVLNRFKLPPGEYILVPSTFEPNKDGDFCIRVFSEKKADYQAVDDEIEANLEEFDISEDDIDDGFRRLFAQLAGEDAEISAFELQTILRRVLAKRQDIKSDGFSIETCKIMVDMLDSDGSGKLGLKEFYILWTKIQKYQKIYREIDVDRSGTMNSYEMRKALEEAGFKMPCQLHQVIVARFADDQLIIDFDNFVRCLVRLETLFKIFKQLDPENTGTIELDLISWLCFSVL
Test: Compound was evaluated for the inhibition of Cysteine protease Calpain 2
measurement kind: pKi
A value of pKi is the negative decimal logarithm of a concentration given in moles per litre.

Query: Need pKi, item CC(C)CC(NC(=O)OCc1ccccc1)C(=O)NC(Cc1ccccc1)C(=O)C(=O)NCC(O)c1ccccc1 (stereo unspecified)
Reply: 7.30

Query: Another molecule to check: CCC(NC(=O)C(CC(C)C)NC(=O)OCc1ccccc1)C(=O)C(=O)NCCc1ccc(OC)cc1 (stereo unspecified)
Reply: 7.34

Query: Another molecule to check: CC(C)CC(NC(=O)OCc1ccccc1)C(=O)NC(Cc1ccccc1)C(=O)C(=O)NCC(O)c1ccc(OCc2ccccc2)cc1 (stereo unspecified)
Reply: 6.62

Query: Another molecule to check: CCC(NC(=O)C(CC(C)C)NC(=O)OCc1ccccc1)C(=O)C(=O)NCC(O)c1cccc(C(F)(F)F)c1 (stereo unspecified)
Reply: 6.74

Query: Another molecule to check: CCC(NC(=O)C(CC(C)C)NC(=O)OCc1ccccc1)C(=O)C(=O)NCC(O)c1ccc(Oc2ccccc2)cc1 (stereo unspecified)
Reply: 6.54

Query: Another molecule to check: CCC(NC(=O)C(CC(C)C)NC(=O)OCc1ccccc1)C(=O)C(=O)NCCc1ccccn1 (stereo unspecified)
Reply: 6.33

Query: Another molecule to check: CCNC(=O)C(=O)C(CC)NC(=O)C(CC(C)C)NC(=O)N1CCOCC1 (stereo unspecified)
Reply: 5.00

Query: Another molecule to check: CCC(NC(=O)C(CC(C)C)NC(=O)OCc1ccccc1)C(=O)C(=O)NCC(O)c1c(F)c(F)c(F)c(F)c1F (stereo unspecified)
Reply: 6.70

* * *

Reported pKi is given for each of the following molecules.
Biological target: Calpain-2 catalytic subunit (Homo sapiens)
Test: Compound was evaluated for the inhibition of Cysteine protease Calpain 2
A value of pKi is the negative decimal logarithm of a concentration given in moles per litre.

Example results:
CCC(NC(=O)C(CC(C)C)NC(=O)OCc1ccccc1)C(=O)C(=O)NCC(O)c1cccc(Oc2ccc(Cl)c(Cl)c2)c1 (stereo not drawn)    6.92
CCNC(=O)C(=O)C(CC)NC(=O)C(CC(C)C)NC(=O)CCc1ccccc1 (stereo not drawn)    6.89
CC(C)CC(NC(=O)C(c1ccccc1)c1ccccc1)C(=O)NC(Cc1ccccc1)C(=O)C(=O)NCc1ccccn1 (stereo not drawn)    6.44

Query: Need pKi, item CCC(NC(=O)C(CC(C)C)NC(=O)OCc1ccccc1)C(=O)C(=O)NCC1(C)CC(O)CC(C)(C)C1 (stereo not drawn)
Reply: 7.16

Query: Another molecule to check: CCC(NC(=O)C(CC(C)C)NC(=O)C(c1ccccc1)c1ccccc1)C(=O)C(=O)NCCCN1CCOCC1 (stereo not drawn)
Reply: 6.96

Query: Another molecule to check: CC(C)CC(NC(=O)OCc1ccccc1)C(=O)NC(Cc1ccccc1)C(=O)C(=O)NCC(O)c1cccc(Oc2ccccc2)c1 (stereo not drawn)
Reply: 6.47

Query: Another molecule to check: CCC(NC(=O)C(CC(C)C)NC(=O)OCc1ccccc1)C(=O)C(=O)NCC(O)c1ccc(OCc2ccccc2)cc1 (stereo not drawn)
Reply: 6.92

Query: Another molecule to check: CC(C)CC(NC(=O)C(c1ccccc1)c1ccccc1)C(=O)NC(Cc1ccccc1)C(=O)C(=O)NCC(O)c1ccccc1 (stereo not drawn)
Reply: 6.14

Query: Another molecule to check: CC(C)CC(NC(=O)C(c1ccccc1)c1ccccc1)C(=O)NC(Cc1ccccc1)C(=O)C(=O)NCCCN1CCOCC1 (stereo not drawn)
Reply: 7.13

Query: Another molecule to check: CCC(NC(=O)C(CC(C)C)NC(=O)OCc1ccccc1)C(=O)C(=O)NCc1ccco1 (stereo not drawn)
Reply: 7.48

Query: Another molecule to check: CCNC(=O)C(=O)C(CC)NC(=O)C(CC(C)C)NC(=O)Cc1cccc2ccccc12 (stereo not drawn)
Reply: 6.60

Query: Another molecule to check: CC(C)CC(NC(=O)OCc1ccccc1)C(=O)NC(Cc1ccccc1)C(=O)C(=O)NCCCN1CCOCC1 (stereo not drawn)
Reply: 6.48

Query: Another molecule to check: CCC(NC(=O)C(CC(C)C)NC(=O)OCc1ccccc1)C(=O)C(=O)NCC(O)c1cccc(Oc2ccccc2)c1 (stereo not drawn)
Reply: 6.23
